test system: SF-539; assay: NCI tumour cell line growth inhibition, 48 h
The source made the active and inactive calls. Cut-off read from the data, not from the text of the source: active = GI50 up to about 1.1 µM and inactive = higher. Where a SMILES comes first, the peptide text is derived from it. The star is where a group is joined. Boc = CC(C)(C)OC(=O)*; Bn = c1ccc(C*)cc1
Listing of entries alongside the reported GI50.
readout-kind: GI50

[
  {
    "compound": "Cc1ccc(C)c(NC(=O)CC2C(=O)Nc3ccccc3S2(=O)=O)c1 (centres undefined)",
    "recorded-measurement": "25.5 µM (inactive)"
  },
  {
    "compound": "CCOCc1cc(=O)c2c(OC)cc3c(c2o1)CCC(C)(C)O3",
    "recorded-measurement": "> 100 µM (inactive)"
  },
  {
    "compound": "CC(C)=CC(C)C(C(O)CCC1(c2ccoc2)OCCO1)S(=O)(=O)c1ccccc1 (centres undefined)",
    "recorded-measurement": "> 100 µM (inactive)"
  },
  {
    "compound": "COC(=O)C(CC(C)C)NC(=O)CNC(=O)C(Cc1ccc(OCc2ccccc2)cc1)NC(=O)C(COCc1ccccc1)NC(=O)OC(C)(C)C (centres undefined) (Boc-S(Bn)Y(Bn)GL-OMe; configuration not given here)",
    "recorded-measurement": "> 100 µM (inactive)"
  }
]

====

test system: NCI-H460; assay: NCI tumour cell line growth inhibition, 48 h
Active and inactive are the calls of the source. No stated cut-off is given here; in the data, active = GI50 up to about 1.1 µM and inactive = higher.
Outcome codes: true for active, false for inactive

[
  {
    "compound": "N#CCCN(CCC#N)c1ccc(/C=C2\\N=C(CN3C(=O)c4ccccc4C3=O)OC2=O)cc1",
    "tested-on": "NCI-H460",
    "category-label": "false"
  },
  {
    "compound": "CCCNCC(=O)O[C@]1(CC)C(=O)OCc2c1cc1n(c2=O)Cc2cc3ccccc3nc2-1",
    "tested-on": "NCI-H460",
    "category-label": "true"
  },
  {
    "compound": "O=C1c2ccccc2C2(O)Nc3cc(O)ccc3C12O (stereo not given)",
    "tested-on": "NCI-H460",
    "category-label": "false"
  },
  {
    "compound": "C/C(=C1/N=C(c2ccccc2)OC1=O)c1cccs1",
    "tested-on": "NCI-H460",
    "category-label": "false"
  },
  {
    "compound": "N#Cc1ccc(OCc2ccc3nc(-c4ccccc4)c(Cl)nc3c2)cc1",
    "tested-on": "NCI-H460",
    "category-label": "false"
  },
  {
    "compound": "CC(=O)O[C@H]1CC[C@@]2(C)C(=CC[C@H]3[C@@H]4C[C@H](N5CCN(C)CC5)[C@H](OC(C)=O)[C@@]4(C)CC[C@@H]32)C1",
    "tested-on": "NCI-H460",
    "category-label": "false"
  },
  {
    "compound": "O=C1C=CC2(CCC23C=CC(=O)O3)O1 (stereo not given)",
    "tested-on": "NCI-H460",
    "category-label": "false"
  },
  {
    "compound": "O=c1[nH]/c(=C/c2ccc(OCc3ccccc3)cn2)c(=O)[nH]/c1=C/c1ccccc1",
    "tested-on": "NCI-H460",
    "category-label": "true"
  },
  {
    "compound": "Cn1c(N/N=C/c2ccc(Cl)cc2)nc(-c2ccc(Cl)cc2)c(C#N)c1=O",
    "tested-on": "NCI-H460",
    "category-label": "false"
  },
  {
    "compound": "CCS(CC)(CC)CC1CCCC2=CCC(P(=O)(c3ccccc3)c3ccccc3)CC21 (stereo not given)",
    "tested-on": "NCI-H460",
    "category-label": "false"
  }
]

====

test system: EKVX; assay: NCI tumour cell line growth inhibition, 48 h
The source made the active and inactive calls. Rule as the data show it: active = GI50 up to about 1.1 µM and inactive = higher.
readout-kind: GI50

[
  {
    "compound": "C1=CC=C2NCCCCCCC/N=C3/C=CC=CC=C3NCCCCCCC/N=C\\2C=C1",
    "recorded-measurement": "> 100 µM (inactive)"
  },
  {
    "compound": "Cc1cc(C)c(S(=O)(=O)ONC(=O)OC(C)(C)C)c(C)c1",
    "recorded-measurement": "> 100 µM (inactive)"
  },
  {
    "compound": "COc1ccc(N2C(=O)CC(=O)N(C(=O)CCCCCCCCC(=O)N3C(=O)CC(=O)N(c4ccc(OC)cc4)C3=S)C2=S)cc1",
    "recorded-measurement": "> 100 µM (inactive)"
  },
  {
    "compound": "CN(C)/C=N\\c1cccc2c1NSN2",
    "recorded-measurement": "> 100 µM (inactive)"
  },
  {
    "compound": "CNNC1=NS(=O)(=O)c2cc(C#N)c(Cl)cc2S1",
    "recorded-measurement": "> 10 µM (inactive)"
  },
  {
    "compound": "CCCSc1ccc2[nH]c(N3C(=O)/C(=C/c4ccc(O)c(OC)c4)N=C3c3ccccc3)cc2c1",
    "recorded-measurement": "14.5 µM (inactive)"
  },
  {
    "compound": "CCC1(CCSC(=N)N)C(=O)NC(=O)NC1=O",
    "recorded-measurement": "> 100 µM (inactive)"
  },
  {
    "compound": "O=C1C(/N=N/c2ccc(-c3nc4ccccc4o3)cc2)NC(=S)N1c1ccccc1 (stereo unspecified)",
    "recorded-measurement": "49.3 µM (inactive)"
  },
  {
    "compound": "O=C(Oc1ccc2c(-c3ccccc3)c(C(=O)Nc3ccc(Cl)cc3)c(=O)oc2c1)c1ccccc1",
    "recorded-measurement": "> 100 µM (inactive)"
  },
  {
    "compound": "O=C(Nc1ccc(F)cc1)C(=O)C(C1OC(=O)c2ccccc21)[N+](=O)[O-] (stereo unspecified)",
    "recorded-measurement": "> 100 µM (inactive)"
  },
  {
    "compound": "O=C(O)c1cc(=O)c2[nH]c3ccccc3c2s1",
    "recorded-measurement": "> 100 µM (inactive)"
  },
  {
    "compound": "COc1ccccc1NC(=O)C1=C(C)NC(C)=C(C(=O)Nc2ccccc2OC)C1c1ccc(C)cc1",
    "recorded-measurement": "47.6 µM (inactive)"
  },
  {
    "compound": "O=c1[nH]/c(=C/c2ccc(OCc3ccccc3)cn2)c(=O)[nH]/c1=C/c1ccccc1",
    "recorded-measurement": "0.138 µM (active)"
  },
  {
    "compound": "CC(=O)O/N=C(/C)c1ccccc1O",
    "recorded-measurement": "> 100 µM (inactive)"
  },
  {
    "compound": "CC(OC(C)(C)C)[C@H](NC(=O)OCc1ccccc1)C(=O)NC(OCc1ccccc1)[C@H]1COC(C)(C)O1 (stereo partly specified)",
    "recorded-measurement": "> 10 µM (inactive)"
  },
  {
    "compound": "COCn1cnc2c(=O)nc(SC)n(-c3ccccc3)c21",
    "recorded-measurement": "> 100 µM (inactive)"
  },
  {
    "compound": "C=C[C@@H]1OC(=O)O[C@H]1CO",
    "recorded-measurement": "> 100 µM (inactive)"
  },
  {
    "compound": "O=c1[nH]c(=O)n(C2CC(O)C(CO)O2)c2nc3ccc4ccccc4c3nc12 (stereo unspecified)",
    "recorded-measurement": "72.4 µM (inactive)"
  },
  {
    "compound": "CCCC(O)c1ccc2[nH]c3c(C)cc([N+](=O)[O-])c(C)c3c2c1 (stereo unspecified)",
    "recorded-measurement": "> 100 µM (inactive)"
  },
  {
    "compound": "Cc1ccc(-n2c3nc(=O)n(C)c(=O)c-3nc3ccccc32)cc1",
    "recorded-measurement": "12.9 µM (inactive)"
  },
  {
    "compound": "O=C(Nc1ccc2nc(O)n[n+]([O-])c2c1)C(F)(F)F",
    "recorded-measurement": "> 100 µM (inactive)"
  }
]

====

tested on: SNB-75; test: NCI tumour cell line growth inhibition, 48 h
Activity calls are given as the source filed them. Rule as the data show it: active = GI50 up to about 1.1 µM and inactive = higher.
Outcome codes: 1.0 (active), 0.0 (inactive)

[
  {
    "molecule": "CC1CC(=O)c2c(ccc3c2C(=O)c2cccc(O)c2C3=O)C1 (stereo unspecified)",
    "category-label": 0.0
  },
  {
    "molecule": "CCCc1nc2c(n1CC)C(=O)c1ccccc1C2=O",
    "category-label": 0.0
  },
  {
    "molecule": "CCOc1ccc(/C=C/c2cc(OC)c(OC)c(OC)c2)cc1",
    "category-label": 1.0
  },
  {
    "molecule": "O=C1[C@@H]2[C@@H](c3ccccc3)[C@]2(Cl)C(=O)[C@H]2[C@H](c3ccccc3)[C@@]12Cl",
    "category-label": 0.0
  },
  {
    "molecule": "C(=C(c1ccc(OC2CCCCO2)cc1)c1ccc(OC2CCCCO2)cc1)c1ccccc1 (stereo unspecified)",
    "category-label": 1.0
  },
  {
    "molecule": "CCC(=O)N(O)C(C)(C)C",
    "category-label": 0.0
  }
]
